Source of measurements: patent EP1137645B1

# Test system: VZV strain Ellen
# experimental details: VZV antiviral (ELISA) assay
# Type: cell-based
# assay context: Human alphaherpesvirus 3, HFF, read-out: IC50 (ug/ml) VZV, VZV strain Ellen, HFF cells, ELISA
measure name: IC50 (µg/mL)
Kindly provide the numeric value in µg/mL only, without the unit symbol.

Under VZV strain Ellen: IC50 value of `COCCOc1ccc(NC(=S)Nc2ccc(NC(=O)c3ccccc3F)cc2)cc1Cl` ?
10

Follow-up item: COc1ccc(C(=O)Nc2ccc(NC(=S)NC(C)c3ccc(F)cc3)cc2)cc1 (stereo not shown)
0.2

Follow-up item: CC(NC(=S)Nc1ccc(NC(=O)c2ccccc2F)cc1)c1ccc(N(C)C)cc1 (stereo not shown)
3.1

Follow-up item: `C[C@H](NC(=S)Nc1ccc(NC(=O)c2ccccc2F)cc1)c1ccc(Br)cc1`
0.06

Follow-up item: `C[C@H](NC(=S)Nc1ccc(NC(=O)c2cc3ccccc3cn2)cc1)c1ccc(Br)cc1`
0.05

Follow-up item: CC(NC(=S)Nc1ccc(NC(=O)c2cc3ccccc3cn2)cc1)c1cc2ccccc2o1 (stereo not shown)
0.035

Follow-up item: `C[C@H](NC(=S)Nc1ccc(NC(=O)c2nccc3ccccc23)cc1)c1ccc(Br)cc1`
0.05

Follow-up item: `O=C(Nc1ccc(NC(=S)Nc2cc(N3CCOCC3)cc(C(F)(F)F)c2)cc1)c1ccccc1F`
2.3

###

# System: VZV strain Ellen
# experimental details: VZV antiviral (ELISA) assay
# Format: cell-based
# assay context: Human alphaherpesvirus 3, HFF, read-out: IC50 (ug/ml) VZV, VZV strain Ellen, HFF cells, ELISA
Task for the reader: assign each of the following compounds its reported IC50.

Under VZV strain Ellen: IC50 value of `CCOC(=O)Nc1cccc(C(=O)Nc2ccc(NC(=S)Nc3cc(Cl)c(OC)cc3OC)cc2)c1` ?
> 10 µg/mL

Follow-up item: `O=C(Nc1ccc(NC(=S)Nc2cc(Cl)ccc2O)cc1)c1ccccc1F`
3.6 µg/mL

Follow-up item: `COc1ccccc1C(=O)Nc1ccc(NC(=S)N[C@H](C)c2ccc(Br)cc2)cc1`
> 7.5 µg/mL

Follow-up item: `Cc1ccc([C@@H](C)NC(=S)Nc2ccc(NC(=O)c3ccccc3F)cc2)cc1`
> 7.5 µg/mL

Follow-up item: `CC(C)Cc1cc(NC(=S)Nc2ccc(NC(=O)c3ccccc3F)cc2)cc(C(F)(F)F)c1`
> 10 µg/mL

Follow-up item: CC(NC(=S)Nc1ccc(NC(=O)c2cccc(Cl)c2)cc1)c1ccc(F)cc1 (centres unmarked)
> 10 µg/mL

Follow-up item: CC(NC(=S)Nc1ccc(NC(=O)c2cc3ccccc3cn2)cc1)c1ccc(Br)cc1 (centres unmarked)
0.046 µg/mL

Follow-up item: CC(=O)Oc1ccc(C(=O)Nc2ccc(NC(=S)NC(C)c3ccc(F)cc3)cc2)cc1 (centres unmarked)
1.5 µg/mL

###

# System: HCMV recombinant mutant virus whose genome contains the prokaryotic beta-glucuronidase gene
# experimental details: microbe, parasite or virus in culture
# Format: cell-based, human cytomegalovirus
# assay context: Human betaherpesvirus 5, Fibroblast, read-out: IC50 ug/ml HCMV, HCMV, human foreskin fibroblasts
Task for the reader: assign each of the following molecules its reported IC50.
Kindly provide the numeric value in µg/mL only, without the unit symbol.

Would you kindly share the measured IC50 for COc1ccc(C(=O)Nc2ccc(NC(=S)Nc3cc(Cl)c(OC)cc3OC)cc2)cc1 [Example 121] ?
6

Follow-up item: C[C@H](NC(=S)Nc1ccc(NC(=O)c2ccc(F)cc2)cc1)c1ccc(Br)cc1 [Example 1103]
3.4

Follow-up item: CC(C)(C)c1cccc(NC(=S)Nc2ccc(NC(=O)c3ccccc3F)cc2)c1 [Example 869]
2.5

Follow-up item: O=C(Nc1ccc(NC(=S)NC(Cc2ccccc2)c2ccc(F)cc2)cc1)c1ccccc1F (centres unmarked) [Example 774]
0.5

Follow-up item: CC(NC(=S)Nc1ccc(NC(=O)c2ccc3ncccc3c2)cc1)c1ccc(F)cc1 (centres unmarked) [Example 990]
4.4

Follow-up item: COc1ccc(NC(=S)Nc2ccc(NC(=O)c3ccc(F)cc3)cc2)cc1Cl [Example 823]
6

###

# Tested on: HCMV recombinant mutant virus whose genome contains the prokaryotic beta-glucuronidase gene
# experimental details: microbe, parasite or virus in culture
# Format: cell-based, human cytomegalovirus
# assay context: Human betaherpesvirus 5, Fibroblast, read-out: IC50 ug/ml HCMV, HCMV, human foreskin fibroblasts
measure name: IC50 (µg/mL)
Kindly provide the numeric value in µg/mL only, without the unit symbol.

Would you kindly share the measured IC50 for `COc1ccc(NC(=S)Nc2ccc(NC(=O)c3ccccc3F)cc2)cc1Br` ?
3.1

Follow-up item: CC(NC(=S)Nc1ccc(NC(=O)c2cc3ccccc3cn2)cc1)c1ccc(F)cc1 (stereo not drawn)
1.5

Follow-up item: CN1CCC(N(C)c2ccc(NC(=S)Nc3ccc(NC(=O)c4ccccc4F)cc3)cc2Cl)C1 (stereo not drawn)
0.9

Follow-up item: `COc1cc(OC)c(NC(=S)Nc2ccc(NC(=O)c3ccccc3C)cc2)cc1Cl`
5

Follow-up item: `COc1c(Cl)cc(NC(=S)Nc2ccc(NC(=O)c3ccc(F)cc3)cc2)cc1Cl`
0.6

Follow-up item: `COc1cc(OC)c(NC(=S)Nc2ccc(NC(=O)c3cccc4ccccc34)cc2)cc1Cl`
8

Follow-up item: `COc1cc(OC)c(NC(=S)Nc2ccc(NC(=O)c3ccc4ccccc4c3)cc2)cc1Cl`
10

Follow-up item: `CN(C)CCSCC(=O)Nc1ccc(NC(=S)Nc2ccc(NC(=O)c3ccccc3F)cc2)cc1Cl`
6

Follow-up item: Cc1cccc(C(C)NC(=S)Nc2ccc(NC(=O)c3ccccc3F)cc2)c1 (stereo not drawn)
0.9

Follow-up item: C[S+]([O-])c1ccc(NC(=S)Nc2ccc(NC(=O)c3c(F)cccc3F)cc2)cc1Cl (stereo not drawn)
0.5

Follow-up item: `COc1cc(C)c(Cl)cc1NC(=S)Nc1ccc(NC(=O)c2ccccc2C)cc1`
2

Follow-up item: `Nc1ccc(NC(=S)Nc2ccc(NC(=O)c3ccccc3F)cc2)cc1Cl`
8

Follow-up item: `O=C(Nc1ccc(NC(=S)Nc2ccc(C(F)(F)F)c(Cl)c2)cc1)c1ccccc1F`
8

Follow-up item: `C[C@H](NC(=S)Nc1ccc(NC(=O)c2ccccc2F)cc1)c1ccc(Br)cc1`
4.2

Follow-up item: `O=C(Nc1ccc(NC(=S)Nc2cc(Br)cc(C(F)(F)F)c2)cc1)c1ccccc1F`
5

Follow-up item: CC(NC(=S)Nc1ccc(NC(=O)c2cc3ccccc3o2)cc1)c1ccc(C#N)cc1 (stereo not drawn)
1.1

Follow-up item: `CN(C)c1ccc(NC(=S)Nc2ccc(NC(=O)c3ccccc3F)cc2)cc1Cl`
0.6

Follow-up item: CC(NC(=S)Nc1ccc(NC(=O)c2ccnc3ccccc23)cc1)c1ccc(F)cc1 (stereo not drawn)
2.9

Follow-up item: `COc1cc(OC)c(NC(=S)Nc2ccc(NC(=O)c3ccccc3F)cc2)cc1Br`
10

###

Task for the reader: assign each of the following molecules its reported IC50.
# System: HCMV recombinant mutant virus whose genome contains the prokaryotic beta-glucuronidase gene
# experimental details: microbe, parasite or virus in culture
# Type: cell-based, human cytomegalovirus
# assay context: Human betaherpesvirus 5, Fibroblast, read-out: IC50 ug/ml HCMV, HCMV, human foreskin fibroblasts
Kindly provide the numeric value in µg/mL only, without the unit symbol.

Would you kindly share the measured IC50 for `COc1ccccc1C(=O)Nc1ccc(NC(=S)N[C@H](C)c2ccc(Br)cc2)cc1` ?
2.5

Follow-up item: `COc1cc(C)c(Cl)cc1NC(=S)Nc1ccc(NC(=O)c2c(F)cccc2F)cc1`
2.5

Follow-up item: COc1ccc(C(C)NC(=S)Nc2ccc(NC(=O)c3ccccc3F)cc2)cc1 (stereo not shown)
1.7

Follow-up item: `COc1cc(OC)c(NC(=S)Nc2ccc(NC(=O)c3cccc(OCCN4CCOCC4)c3)cc2)cc1Cl`
5

Follow-up item: `C[C@@H](NC(=S)Nc1ccc(NC(=O)c2ccccc2F)cc1)c1ccc(Cl)cc1`
2.9

Follow-up item: `CCOC(=O)Nc1ccc(NC(=S)Nc2ccc(NC(=O)c3ccccc3F)cc2)cc1Cl`
1.5

Follow-up item: `Cc1ccccc1C(=O)Nc1ccc(NC(=S)Nc2ccc(N(C)C3CCN(C)CC3)c(Cl)c2)cc1`
1.5

Follow-up item: `COc1cc(OC)c(NC(=S)Nc2ccc(NC(=O)c3ccccc3F)cc2)cc1Cl`
3

Follow-up item: `COc1cccc(C(=O)Nc2ccc(NC(=S)Nc3ccc(OC)c(Cl)c3)cc2)c1`
4

Follow-up item: O=C(Nc1ccc(NC(=S)NC(c2ccccc2)c2ccc(F)cc2)cc1)c1ccccc1F (stereo not shown)
0.35

###

# Test system: VZV strain Ellen
# experimental details: VZV antiviral (ELISA) assay
# Assay type: cell-based
# assay context: Human alphaherpesvirus 3, read-out: % inhibition 10 ug/ml VZV; 10 ug/ml; VZV strain Ellen, HFF cells, ELISA
measure name: inhibition at 10 µg/mL (%)
Kindly provide the numeric value in % only, without the unit symbol.

Would you kindly share the measured inhibition at 10 µg/mL for NC(=O)c1cccc(NC(=S)Nc2ccc(NC(=O)c3ccccc3F)cc2)c1 [Example 952] ?
22

Follow-up item: O=C(Nc1ccc(NC(=S)Nc2ccc(Br)c(Cl)c2)cc1)c1ccccc1F [Example 915]
29

Follow-up item: Cc1cccc(NC(=S)Nc2ccc(NC(=O)c3ccccc3F)cc2)c1 [Example 432]
0

Follow-up item: O=C(Nc1ccc(NC(=S)Nc2cc(C(F)(F)F)cc(C(F)(F)F)c2)cc1)c1ccccc1F [Example 517]
5

Follow-up item: O=C(Nc1ccc(NC(=S)Nc2cccc(F)c2)cc1)c1ccccc1F [Example 962]
10

Follow-up item: Nc1cccc(NC(=S)Nc2ccc(NC(=O)c3ccccc3F)cc2)c1 [Example 434]
0

Follow-up item: O=C(Nc1ccc(NC(=S)Nc2cccc(C(F)(F)F)c2)cc1)c1ccccc1F [Example 433]
0

Follow-up item: O=C(Nc1ccc(NC(=S)Nc2cc(Cl)c(Cl)c(Cl)c2)cc1)c1ccccc1F [Example 937]
25

Follow-up item: COc1cccc(NC(=S)Nc2ccc(NC(=O)c3ccccc3F)cc2)c1 [Example 487]
48

Follow-up item: COc1cc(OC)c(NC(=S)Nc2ccc(NC(=O)c3ccccc3Br)cc2)cc1Cl [Example 142]
51

Follow-up item: O=C(Nc1ccc(NC(=S)Nc2cccc(OC(F)(F)F)c2)cc1)c1ccccc1F [Example 961]
53

Follow-up item: Cc1nc2cc(NC(=S)Nc3ccc(NC(=O)c4ccccc4F)cc3)ccc2[nH]1 [Example 497]
10

Follow-up item: O=C(Nc1ccc(NC(=S)Nc2ccc3[nH]cnc3c2)cc1)c1ccccc1F [Example 496]
25

Follow-up item: N#Cc1cccc(NC(=S)Nc2ccc(NC(=O)c3ccccc3F)cc2)c1 [Example 461]
33

Follow-up item: O=C(Nc1ccc(NC(=S)Nc2ccccc2)cc1)c1ccccc1F [Example 859]
20

Follow-up item: O=C(O)c1cccc(NC(=S)Nc2ccc(NC(=O)c3ccco3)cc2)c1 [Example 964]
0

Follow-up item: O=C(O)c1cccc(NC(=S)Nc2ccc(NC(=O)c3ccccc3F)cc2)c1 [Example 963]
30

Follow-up item: NNC(=O)c1cccc(NC(=S)Nc2ccc(NC(=O)c3ccccc3F)cc2)c1 [Example 463]
19
